Test: Phase 1 Stage 1 clinical pharmacokinetics of SC ZA co-administered with rHuPH20
Format: in vivo, human
Settings: human, serum, sc, 0.0717 mg/kg; read-out: T½ λz (converted)
Assay Readout: half-life

Consider the compound O=P(O)(O)C(O)(Cn1ccnc1)P(=O)(O)O [ZA] and give its recorded half-life. 18.3 h

###

Assay: Phase 1 Stage 1 clinical pharmacokinetics of SC ZA co-administered with rHuPH20
Format: in vivo, human
Settings: human, serum, sc, serum; ZA 0.25 mg SC infusion + 24000 Units rHuPH20; 10 min post infusion; individual subjects; read-out: Zoledronic Acid Concentration
Assay Readout: concentration at 10 min
Answer by giving the amount and then stating its unit.

Consider the molecule O=P(O)(O)C(O)(Cn1ccnc1)P(=O)(O)O [ZA] and give its recorded concentration at 10 min. 7.43 ng/mL
